experiment: Clearance in Sprague-Dawley rat at 1 mg/kg, iv measured upto 24 hrs by LC-MS/MS analysis
Format: ADME, organism-based
setup_conditions: in vivo
recorded_metric: clearance (mL/min/kg)
Numbers only; they are read as mL/min/kg.

Identify the reported clearance for the following entry. CCCCN(C)C(=O)CCCCOc1ccc([C@H]2c3ccc(OC)cc3OC(C)(C)[C@@H]2c2ccccc2)cc1
18.4

* * *

experiment: Cmax in Sprague-Dawley rat at 1 mg/kg, po measured upto 24 hrs by LC-MS/MS analysis
Assay type: ADME, organism-based
Design: route oral, dose 1 mg/kg, time <=24
setup_conditions: in vivo
recorded_metric: Cmax (µg/mL)
Express it in µg/mL; write the number only.

Supply recorded Cmax for CCCCN(C)C(=O)CCCCOc1ccc([C@H]2c3ccc(OC)cc3OC(C)(C)[C@@H]2c2ccccc2)cc1 here.
0.0389
